- Tested on: biotinyl-Phe-oxazolone
- method description: self-aminoacylation, catalytic enhancement (BFO) (fold over background); higher = more active; k-Seq, kA / k0A0; sequences stand for … in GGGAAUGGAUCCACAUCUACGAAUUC…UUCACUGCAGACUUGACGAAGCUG
Fewer inactive variants are shown than the library holds.
Give fulfilled when the value for self-aminoacylation is at least 2. Give not fulfilled when it is less.

Does the reported self-aminoacylation for AAGUGUGCUAAUAUUCGCAAG [Fam3.1 aminoacylation ribozyme variant] fall at or above the 2 mark?
not fulfilled

Item CUACUCCAAACAAUCGGUGUG [Fam1A.1 aminoacylation ribozyme variant] with self-aminoacylation of 2 or above?
not fulfilled

API: above_or_equal(metric=self-aminoacylation, cutoff=2) for item CUUACUCUGGUCAUCGAGUGA [Fam2.1 aminoacylation ribozyme variant]
fulfilled

In plain terms: is recorded self-aminoacylation at least 2 for AUUCACCUAGGUCAACGGGUC [Fam2.2 aminoacylation ribozyme variant] ?
not fulfilled

Is reported self-aminoacylation greater than or equal to 2 here: AUACACCUAGGUCAGCGGGUG [Fam2.2 aminoacylation ribozyme variant]
fulfilled
